Source listed as ChEMBL document CHEMBL1240490.

target: Acetylcholinesterase (Homo sapiens, UniProt P22303)
Sequence (P22303 whole entry): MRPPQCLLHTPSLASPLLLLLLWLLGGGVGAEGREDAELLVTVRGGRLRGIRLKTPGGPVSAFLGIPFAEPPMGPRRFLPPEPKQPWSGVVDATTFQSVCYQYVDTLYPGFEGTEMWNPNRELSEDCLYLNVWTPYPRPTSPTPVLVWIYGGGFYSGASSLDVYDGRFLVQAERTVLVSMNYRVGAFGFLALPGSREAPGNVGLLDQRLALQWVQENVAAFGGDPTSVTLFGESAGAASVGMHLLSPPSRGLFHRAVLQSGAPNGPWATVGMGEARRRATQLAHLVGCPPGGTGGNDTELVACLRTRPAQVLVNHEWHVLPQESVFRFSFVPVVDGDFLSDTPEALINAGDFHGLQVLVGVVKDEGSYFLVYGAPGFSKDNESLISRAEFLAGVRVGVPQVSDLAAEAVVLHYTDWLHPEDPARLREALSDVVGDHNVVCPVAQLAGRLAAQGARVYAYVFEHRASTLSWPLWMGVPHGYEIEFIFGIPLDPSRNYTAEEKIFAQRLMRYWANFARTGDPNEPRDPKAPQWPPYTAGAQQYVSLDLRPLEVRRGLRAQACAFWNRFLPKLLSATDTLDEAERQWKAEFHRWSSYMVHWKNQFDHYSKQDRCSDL
Hi! Just check whether IC50 is below 40 nM. Below gives condition met, equal or above gives condition not met.

{"columns": ["SMILES_CODE", "CATEGORY_LABEL"],
 "data": [
  ["CN(C)Cc1cc2c(cc1OC(=O)Nc1ccccc1)[C@]1(C)CCN(C)[C@@H]1N2C", "condition not met"],
  ["CN1CC[C@@]2(C)c3cc(OC(=O)N4CCc5ccccc5C4)ccc3N(C)[C@@H]12", "condition not met"],
  ["CN1CC[C@@]2(C)c3cc(OC(=O)Nc4ccccc4)ccc3N(Cc3ccccc3)[C@@H]12", "condition not met"],
  ["CNC(=O)Oc1ccc2c(c1)SC[C@@H]1CCN(C)[C@H]21", "condition met"],
  ["Cc1ccccc1NC(=O)Oc1ccc2c(c1)[C@]1(C)CCN[C@@H]1N2", "condition not met"],
  ["CNC(=O)Oc1ccc2c(c1)CC[C@@H]1CCN(C)[C@H]21", "condition met"],
  ["CNC(=O)Oc1ccc2c(c1)[C@]1(C)CCN(Cc3ccccc3)[C@@H]1N2Cc1ccccc1", "condition not met"]
]}

----------
biological target: Acetylcholinesterase (Homo sapiens)
ATTRIBUTE_MEASURED: logIC50

{"columns": ["COMPOUND", "TEST_VALUE"],
 "data": [
  ["Cc1ccccc1NC(=O)Oc1ccc2c(c1)[C@]1(C)CCO[C@@H]1N2C", 1.11],
  ["CCc1cccc(CC)c1NC(=O)Oc1ccc2c(c1)[C@]1(C)CCN(C)[C@@H]1N2C", 2.84],
  ["CN(C(=O)Oc1ccc2c(c1)[C@]1(C)CCN(C)[C@@H]1N2C)c1ccccc1", 2.46],
  ["CCc1ccccc1NC(=O)Oc1ccc2c(c1)[C@]1(C)CCN(C)[C@@H]1N2C", 1],
  ["Cc1cc2c(cc1OC(=O)Nc1ccccc1)[C@]1(C)CCN(C)[C@@H]1N2C", 2.41],
  ["CNC(=O)Oc1ccc2c(c1)[C@]1(C)CCN(Cc3ccccc3)C1N2Cc1ccccc1 (stereo not given in full)", 3.04],
  ["CNC(=O)Oc1ccc2c(c1)[C@]1(C)CCO[C@@H]1N2C", 1.43],
  ["Cc1ccc(NC(=O)Oc2ccc3c(c2)[C@]2(C)CCN(C)[C@@H]2N3C)c(C)c1", 1.15],
  ["CC(C)c1ccc(NC(=O)Oc2ccc3c(c2)[C@]2(C)CCO[C@@H]2N3C)cc1", 3.59],
  ["CC(C)c1ccc(NC(=O)Oc2ccc3c(c2)[C@]2(C)CCN(C)C2N3)cc1 (stereo not given in full)", 3.31]
]}

----------
A set of compounds tested on Acetylcholinesterase (Homo sapiens, UniProt P22303), with measured logIC50:

{"columns": ["COMPOUND", "logIC50"],
 "data": [
  ["CN1CC[C@@]2(C)c3cc(OC(=O)Nc4ccccc4)ccc3N(Cc3ccccc3)[C@@H]12", 2.39],
  ["Cc1ccccc1NC(=O)Oc1ccc2c(c1)[C@]1(C)CCN(CCc3ccccc3)C1N2C (stereo partly drawn)", 2.74],
  ["CC(C)c1ccc(NC(=O)Oc2ccc3c(c2)C2(C)COC(O3)O2)cc1 (stereo not drawn)", 3.63],
  ["CCNC(=O)Oc1ccc2c(c1)C1(C)COC(C1)O2 (stereo not drawn)", 2.56],
  ["Cc1ccc(NC(=O)Oc2ccc3c(c2)[C@]2(C)CCN(C)[C@@H]2N3C)cc1C", 1.49],
  ["CNC(=O)Oc1ccc2c(c1)[C@@]1(C)CCN(C)C1N2 (stereo partly drawn)", 1.75],
  ["Cc1ccc(C)c(NC(=O)Oc2ccc3c(c2)[C@]2(C)CCN(C)[C@@H]2N3C)c1", 1.42],
  ["CNC(=O)Oc1ccc2c(c1)[C@]1(C)CCN(C)[C@@H]1N2C=O", 3.4]
]}

----------
A set of compounds tested on Acetylcholinesterase (Homo sapiens, UniProt P22303), with measured log10(IC50):
ATTRIBUTE_MEASURED: log10(IC50) (log10 of the value in nM)

{"columns": ["COMPOUND", "TEST_VALUE"],
 "data": [
  ["CNC(=O)Oc1ccc2c(c1)c(C)cn2Nc1ccncc1F", 2.00],
  ["CC(C)c1ccc(NC(=O)Oc2ccc3c(c2)C2(C)COC(O3)O2)cc1 (stereo not given)", 3.63],
  ["CCc1cccc(CC)c1NC(=O)Oc1ccc2c(c1)[C@]1(C)CCN(C)[C@@H]1N2C", 2.84],
  ["C[C@H](c1cccc(OC(=O)N(C)C)c1)N1CCCCC1", 1.51],
  ["CCNC(=O)Oc1ccc2c(c1)C1(C)COC(O2)O1 (stereo not given)", 2.59],
  ["CNC(=O)Oc1ccc2c(c1)[C@]1(C)CCN(C)[C@@H]1N2", 1.75],
  ["C[C@@]12CCN(Cc3ccccc3)[C@@H]1N(Cc1ccccc1)c1ccc(OC(=O)Nc3ccccc3)cc12", 4.61],
  ["CNC(=O)Oc1ccc2c(c1)OC[C@@H]1CCN(C)[C@H]21", 1.48],
  ["O=C(Nc1ccccc1Cl)Oc1ccc2c(c1)CCCN2Cc1ccccc1", 3.52],
  ["CNC(=O)Oc1ccc2c(c1)[C@]1(C)CCN(C)[C@@H]1N2Cc1ccccc1", 2.21]
]}

----------
target: Acetylcholinesterase (Homo sapiens, UniProt P22303)
Each entry below lists one item and its recorded logIC50 value.

{"columns": ["COMPOUND", "logIC50"],
 "data": [
  ["C[C@]12CCNC1Nc1ccc(OC(=O)Nc3ccccc3)cc12 (stereo partly specified)", 2.36],
  ["Cc1ccccc1NC(=O)Oc1ccc2c(c1)[C@]1(C)CCN(C)[C@@H]1N2C", 1],
  ["CC(C)c1ccc(NC(=O)Oc2ccc3c(c2)[C@]2(C)CCN(C)C2N3Cc2ccccc2)cc1 (stereo partly specified)", 4.11],
  ["CN1CC[C@@]2(C)c3cc(OC(=O)Nc4ccccc4)ccc3N(C=O)[C@@H]12", 2.52],
  ["CCNC(=O)Oc1ccc2c(c1)[C@]1(C)CCN(C)[C@@H]1N2C", 1.97],
  ["CCNC(=O)Oc1ccc2c(c1)C1(C)COC(O2)O1 (stereo unspecified)", 2.59],
  ["CNC(=O)Oc1ccc2c(c1)[C@]1(C)CCN(C)[C@@H]1N2", 1.75],
  ["CN1CC[C@]2(C)c3cc(OC(=O)Nc4ccccc4)ccc3N(C)C12 (stereo partly specified)", 3.54],
  ["Cc1ccccc1NC(=O)Oc1ccc2c(c1)[C@]1(C)CCN[C@@H]1N2", 2.92],
  ["Cc1cccc(C)c1NC(=O)Oc1ccc2c(c1)[C@]1(C)CCN(C)[C@@H]1N2C", 2.89],
  ["CNC(=O)Oc1ccc2c(c1)[C@]1(C)CCN(Cc3ccccc3)[C@@H]1N2Cc1ccccc1", 3.55],
  ["Cc1ccccc1NC(=O)Oc1ccc2c(c1)[C@]1(C)CCN(C)C1N2Cc1ccccc1 (stereo partly specified)", 2],
  ["CNC(=O)Oc1ccc2c(c1)[C@]1(C)CCNC1N2 (stereo partly specified)", 3.17],
  ["Cc1ccccc1NC(=O)Oc1ccc2c(c1)C1(C)COC(C1)O2 (stereo unspecified)", 1.75],
  ["CN(C)Cc1cc2c(cc1OC(=O)Nc1ccccc1)[C@]1(C)CCN(C)[C@@H]1N2C", 2.89],
  ["Cc1ccccc1NC(=O)Oc1ccc2c(c1)[C@]1(C)CCN(C)[C@@H]1N2", 1.6],
  ["Cc1ccc(NC(=O)Oc2ccc3c(c2)[C@]2(C)CCN(C)[C@@H]2N3C)cc1", 2.15],
  ["C[C@@]12CCN(Cc3ccccc3)[C@@H]1N(Cc1ccccc1)c1ccc(OC(=O)Nc3ccccc3)cc12", 4.61],
  ["CNC(=O)Oc1ccc2c(c1)[C@@]1(C)CCN(C)C1N2Cc1ccccc1 (stereo partly specified)", 3.45],
  ["Cc1ccccc1NC(=O)Oc1ccc2c(c1)[C@]1(C)CCNC1N2C (stereo partly specified)", 1.23],
  ["CC(C)c1ccccc1NC(=O)Oc1ccc2c(c1)[C@]1(C)CCN(C)[C@@H]1N2C", 1.18]
]}

----------
A set of compounds tested on UniProt:P22303, with measured logIC50:
ATTRIBUTE_MEASURED: logIC50

{"columns": ["COMPOUND", "TARGET_ENTITY", "TEST_VALUE"],
 "data": [
  ["Cc1cccc(NC(=O)Oc2ccc3c(c2)[C@]2(C)CCN(C)[C@@H]2N3C)c1C", "UniProt:P22303", 1.36],
  ["CN1CC[C@]2(C)c3cc(OC(=O)Nc4ccccc4)ccc3NC12 (stereo not given in full)", "UniProt:P22303", 3.75],
  ["CNC(=O)Oc1ccc2c(c1)[C@]1(C)CCN(C)[C@@H]1N2Cc1ccccc1", "UniProt:P22303", 2.21],
  ["Cc1ccccc1NC(=O)Oc1ccc2c(c1)[C@]1(C)CCN(Cc3ccccc3)C1N2Cc1ccccc1 (stereo not given in full)", "UniProt:P22303", 3.25],
  ["CCNC(=O)Oc1ccc2c(c1)[C@]1(C)CCO[C@@H]1N2C", "UniProt:P22303", 1.91],
  ["Cc1cc(C)cc(NC(=O)Oc2ccc3c(c2)[C@]2(C)CCN(C)[C@@H]2N3C)c1", "UniProt:P22303", 1.89],
  ["CNC(=O)Oc1ccc2c(c1)[C@]1(C)CCN(C)C1N2Cc1ccccc1 (stereo not given in full)", "UniProt:P22303", 2.21],
  ["CN1CC[C@]2(C)c3cc(OC(=O)Nc4ccccc4)ccc3N(Cc3ccccc3)C12 (stereo not given in full)", "UniProt:P22303", 4.05],
  ["Cc1cc(C)c(NC(=O)Oc2ccc3c(c2)[C@]2(C)CCN(C)[C@@H]2N3C)c(C)c1", "UniProt:P22303", 3.11],
  ["CC(C)c1ccc(NC(=O)Oc2ccc3c(c2)[C@]2(C)CCNC2N3C)cc1 (stereo not given in full)", "UniProt:P22303", 2.51]
]}
